Data credit: patent US20120172293A1

Target: human Y2 receptor (human) (UniProt P49146)
Sequence (P49146 whole entry): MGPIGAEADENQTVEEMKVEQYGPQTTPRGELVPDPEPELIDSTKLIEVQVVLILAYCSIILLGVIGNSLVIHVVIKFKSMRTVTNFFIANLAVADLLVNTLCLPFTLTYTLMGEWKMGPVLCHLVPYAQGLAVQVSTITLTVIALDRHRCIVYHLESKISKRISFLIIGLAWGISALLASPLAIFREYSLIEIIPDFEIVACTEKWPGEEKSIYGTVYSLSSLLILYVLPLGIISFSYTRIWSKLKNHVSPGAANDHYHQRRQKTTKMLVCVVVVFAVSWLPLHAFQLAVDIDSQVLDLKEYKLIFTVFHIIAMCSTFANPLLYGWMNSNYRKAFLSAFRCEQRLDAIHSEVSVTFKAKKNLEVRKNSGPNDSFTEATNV
Assay: RBA: [125I]-PYY displacement, hY2R/CHO membranes
Starred links: 1 amine or outer side, 2 acyl side, 3 side chain; linkers in the order of their positions; H or OH if unused. Non-standard residues stand in square brackets, D forms with d. *: point of attachment. Tyr(3-F) = N[C@@H](Cc1ccc(O)c(F)c1)C(=O)O; Dap(CONH2) = NC(=O)NC[C@H](N)C(=O)O; tBuAla = CC(C)(C)C[C@H](N)C(=O)O; Cha = N[C@@H](CC1CCCCC1)C(=O)O; Suc = O=C(CCC(=O)[*:2])[*:1]; Isobutyryl = CC(C)C(=O)*; Iva = CC[C@](C)(N)C(=O)O; Orn = NCCC[C@H](N)C(=O)O; Abu = CC[C@H](N)C(=O)O; Aib = CC(C)(N)C(=O)O; Bz = O=C(c1ccccc1)*; Ahx = NCCCCCC(=O)O
Measured IC50 Ratio (vs PYY(3-36)), listed per entry.
Lab note: write the figure by itself, no unit.

Examples with answers:
• Ac-S[dP]R[Orn][Cha][Cha]NL[Aib]TRQR[Cha]-NH2 (SMILES CC(=O)N[C@@H](CO)C(=O)N1CCC[C@@H]1C(=O)N[C@@H](CCCNC(=N)N)C(=O)N[C@@H](CCCN)C(=O)N[C@@H](CC1CCCCC1)C(=O)N[C@@H](CC1CCCCC1)C(=O)N[C@@H](CC(N)=O)C(=O)N[C@@H](CC(C)C)C(=O)NC(C)(C)C(=O)N[C@H](C(=O)N[C@@H](CCCNC(=N)N)C(=O)N[C@@H](CCC(N)=O)C(=O)N[C@@H](CCCNC(=N)N)C(=O)N[C@@H](CC1CCCCC1)C(N)=O)[C@@H](C)O) [Ac-[D-Pro24, Orn26, Cha27,28,36, Aib31]-PYY(23-36)] = 4.2
• Isobutyryl-R[Abu][Cha][Cha]NL[Aib]TRQR[Tyr(3-F)]-NH2 (SMILES CC[C@H](NC(=O)[C@H](CCCNC(=N)N)NC(=O)C(C)C)C(=O)N[C@@H](CC1CCCCC1)C(=O)N[C@@H](CC1CCCCC1)C(=O)N[C@@H](CC(N)=O)C(=O)N[C@@H](CC(C)C)C(=O)NC(C)(C)C(=O)N[C@H](C(=O)N[C@@H](CCCNC(=N)N)C(=O)N[C@@H](CCC(N)=O)C(=O)N[C@@H](CCCNC(=N)N)C(=O)N[C@@H](Cc1ccc(O)c(F)c1)C(N)=O)[C@@H](C)O) [Isobutanoyl-[Abu26, Cha27,28, Aib31, Tyr(3F)36]-PYY(25-36)] = 26

Recorded IC50 Ratio (vs PYY(3-36)) for Ac-S[dP]R[Iva][Cha][Cha]NL[Aib]TRQR[Cha]-NH2 (SMILES CC[C@](C)(NC(=O)[C@H](CCCNC(=N)N)NC(=O)[C@H]1CCCN1C(=O)[C@H](CO)NC(C)=O)C(=O)N[C@@H](CC1CCCCC1)C(=O)N[C@@H](CC1CCCCC1)C(=O)N[C@@H](CC(N)=O)C(=O)N[C@@H](CC(C)C)C(=O)NC(C)(C)C(=O)N[C@H](C(=O)N[C@@H](CCCNC(=N)N)C(=O)N[C@@H](CCC(N)=O)C(=O)N[C@@H](CCCNC(=N)N)C(=O)N[C@@H](CC1CCCCC1)C(N)=O)[C@@H](C)O) [Ac-[D-Pro24, Iva26, Cha27,28,36, Aib31]-PYY(23-36)] , please?
5.2

Record request: IC50 Ratio (vs PYY(3-36)) value, item Suc-[Ahx]S[dP]RH[Cha][tBuAla]NK[Aib]TRQR[Cha]-NH2 (SMILES C[C@@H](O)[C@H](NC(=O)C(C)(C)NC(=O)[C@H](CCCCN)NC(=O)[C@H](CC(N)=O)NC(=O)[C@H](CC(C)(C)C)NC(=O)[C@H](CC1CCCCC1)NC(=O)[C@H](Cc1c[nH]cn1)NC(=O)[C@H](CCCNC(=N)N)NC(=O)[C@H]1CCCN1C(=O)[C@H](CO)NC(=O)CCCCCNC(=O)CCC(=O)O)C(=O)N[C@@H](CCCNC(=N)N)C(=O)N[C@@H](CCC(N)=O)C(=O)N[C@@H](CCCNC(=N)N)C(=O)N[C@@H](CC1CCCCC1)C(N)=O) [3-Carboxypropionyl-[Acp22, D-Pro24, Cha27,36, Leu(Me)28, Lys30, Aib31]-PYY(22-36)]
1.7

Any idea what its IC50 Ratio (vs PYY(3-36)) is? The binder is Ac-S[dP][Iva]H[Cha][Cha]NL[Aib]TRQR[Cha]-NH2 (SMILES CC[C@](C)(NC(=O)[C@H]1CCCN1C(=O)[C@H](CO)NC(C)=O)C(=O)N[C@@H](Cc1c[nH]cn1)C(=O)N[C@@H](CC1CCCCC1)C(=O)N[C@@H](CC1CCCCC1)C(=O)N[C@@H](CC(N)=O)C(=O)N[C@@H](CC(C)C)C(=O)NC(C)(C)C(=O)N[C@H](C(=O)N[C@@H](CCCNC(=N)N)C(=O)N[C@@H](CCC(N)=O)C(=O)N[C@@H](CCCNC(=N)N)C(=O)N[C@@H](CC1CCCCC1)C(N)=O)[C@@H](C)O) [Ac-[D-Pro24, Iva25, Cha27,28,36, Aib31]-PYY(23-36)]
4.5

Bench note: what IC50 Ratio (vs PYY(3-36)) did Bz-RS[Cha][Cha]NL[Aib]TRQR[Cha]-NH2 (SMILES CC(C)C[C@H](NC(=O)[C@H](CC(N)=O)NC(=O)[C@H](CC1CCCCC1)NC(=O)[C@H](CC1CCCCC1)NC(=O)[C@H](CO)NC(=O)[C@H](CCCNC(=N)N)NC(=O)c1ccccc1)C(=O)NC(C)(C)C(=O)N[C@H](C(=O)N[C@@H](CCCNC(=N)N)C(=O)N[C@@H](CCC(N)=O)C(=O)N[C@@H](CCCNC(=N)N)C(=O)N[C@@H](CC1CCCCC1)C(N)=O)[C@@H](C)O) [Benzoyl-[Ser26, Cha27,28,36, Aib31]-PYY(25-36)] show?
13

Reported IC50 Ratio (vs PYY(3-36)), binder Ac-S[dP]R[Dap(CONH2)][Cha][Cha]NL[Aib]TRQR[Cha]-NH2 (SMILES CC(=O)N[C@@H](CO)C(=O)N1CCC[C@@H]1C(=O)N[C@@H](CCCNC(=N)N)C(=O)N[C@@H](CNC(N)=O)C(=O)N[C@@H](CC1CCCCC1)C(=O)N[C@@H](CC1CCCCC1)C(=O)N[C@@H](CC(N)=O)C(=O)N[C@@H](CC(C)C)C(=O)NC(C)(C)C(=O)N[C@H](C(=O)N[C@@H](CCCNC(=N)N)C(=O)N[C@@H](CCC(N)=O)C(=O)N[C@@H](CCCNC(=N)N)C(=O)N[C@@H](CC1CCCCC1)C(N)=O)[C@@H](C)O) [Ac-[D-Pro24, Alb26, Cha27,28,36, Aib31]-PYY(23-36)] : ____
12
